Origin of measurements: the supplement of paper PMC10878532

Test system: human spermatozoa;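 further: pooled live human sperm from at least 3 donors, tracked by automated microscopy in 0.5 s time-lapse movies, compounds at 10 and 30 µM, versus median of 16 DMSO wells per plate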
procedureDetails: progressively motile sperm, percent change vs DMSO (non-capacitating); higher = more of the measured sperm population than DMSO, for viability, fewer PI-positive (dead) cells than DMSO; extreme values may be limits of the assay
measurementSetup: incubation time: 6h incubation, 9.99 µM
Structures can show the parent of a compound that is named as a salt.
testReadout: progressively motile sperm (%)
Write down the numeric answer in % and omit the unit.

# input Given the entry CC(C)(O)c1ccn2c(-c3ccc(F)c(-c4ccc(F)cc4C#N)c3)cnc2c1F [TP 003] , report its measured progressively motile sperm.
# output 96

# input Field entry: CCOC(=O)CSc1nc(=O)c(NCC(=O)OC)n[nH]1 [Compound B4]
# output 4.42

# input Same lookup for CO[C@H]1[C@@H](OC)C[C@H](C)[C@@H](OC)C2=CC(=O)C=C(NC(=O)/C(C)=C/C=C/[C@H](OC)[C@@H](OC(N)=O)/C(C)=C/[C@@H]1C)C2=O [Herbimycin a] , please.
# output -46.3

# input Item: COc1cc(C(=O)N2CCC(N3CCN(C)CC3)CC2)ccc1Nc1ncc2c(n1)N(C)c1ccccc1C(=O)N2C [LRRK2-IN-1]
# output 62.8

# input Now give it for COC(=O)c1c(C)[nH]c(C)c1C(=O)c1ccccc1Cc1ccccc1 too.
# output 12.6

# input What about this molecule? Cc1ccc(S(=O)(=O)c2c(N)n(CC(O)c3ccc([N+](=O)[O-])cc3)c3nc4ccccc4nc23)cc1 (configuration not stated)
# output 45.4

# input Do the same for NC(=O)Nc1cc(-c2cccc(F)c2)sc1C(=O)N[C@H]1CCCNC1 [AZD 7762 hydrochloride] please
# output -30.8
